settings: in n-propyl acetate, 283.15 K
MEASUREMENT_KIND: solubility (mole fraction)

Determine from records and report solubility (mole fraction) for COc1ccc(C(=O)O)c(OC)c1OC
0.0454

* * *

settings: in 2-butoxyethanol, 303.15 K
MEASUREMENT_KIND: solubility (mole fraction)

Determine from records and report solubility (mole fraction) for COc1ccc(C(=O)O)c(OC)c1OC
0.167

* * *

conditions: in 2-ethoxyethanol, 318.15 K
MEASUREMENT_KIND: solubility (mole fraction)
A bare number is all that is needed in reply.

Determine from records and report solubility (mole fraction) for COc1ccc(C(=O)O)c(OC)c1OC
0.431

* * *

conditions: in isopropyl acetate, 278.15 K
MEASUREMENT_KIND: solubility (mole fraction)
A bare number is all that is needed in reply.

Determine from records and report solubility (mole fraction) for COc1ccc(C(=O)O)c(OC)c1OC
0.0412

* * *

conditions: in n-propyl acetate, 298.15 K
MEASUREMENT_KIND: solubility (mole fraction)

Determine from records and report solubility (mole fraction) for COc1ccc(C(=O)O)c(OC)c1OC
0.0829

* * *

settings: in n-propanol, 298.15 K
MEASUREMENT_KIND: solubility (mole fraction)
A bare number is all that is needed in reply.

Determine from records and report solubility (mole fraction) for COc1ccc(C(=O)O)c(OC)c1OC
0.082

* * *

settings: in ethyl acetate, 303.15 K
MEASUREMENT_KIND: solubility (mole fraction)
A bare number is all that is needed in reply.

Determine from records and report solubility (mole fraction) for COc1ccc(C(=O)O)c(OC)c1OC
0.174

* * *

settings: in ethylene glycol, 308.15 K
MEASUREMENT_KIND: solubility (mole fraction)
A bare number is all that is needed in reply.

Determine from records and report solubility (mole fraction) for COc1ccc(C(=O)O)c(OC)c1OC
0.0501

* * *

conditions: in n-propanol, 303.15 K
MEASUREMENT_KIND: solubility (mole fraction)
A bare number is all that is needed in reply.

Determine from records and report solubility (mole fraction) for COc1ccc(C(=O)O)c(OC)c1OC
0.104

* * *

settings: in water, 293.15 K
MEASUREMENT_KIND: solubility (mole fraction)

Determine from records and report solubility (mole fraction) for COc1ccc(C(=O)O)c(OC)c1OC
0.000553

* * *

settings: in water, 308.15 K
MEASUREMENT_KIND: solubility (mole fraction)

Determine from records and report solubility (mole fraction) for COc1ccc(C(=O)O)c(OC)c1OC
0.00109

* * *

details: in ethylene glycol, 303.15 K
MEASUREMENT_KIND: solubility (mole fraction)

Determine from records and report solubility (mole fraction) for COc1ccc(C(=O)O)c(OC)c1OC
0.0421

* * *

conditions: in ethyl acetate, 298.15 K
MEASUREMENT_KIND: solubility (mole fraction)
A bare number is all that is needed in reply.

Determine from records and report solubility (mole fraction) for COc1ccc(C(=O)O)c(OC)c1OC
0.13

* * *

conditions: in n-butyl acetate, 283.15 K
MEASUREMENT_KIND: solubility (mole fraction)
A bare number is all that is needed in reply.

Determine from records and report solubility (mole fraction) for COc1ccc(C(=O)O)c(OC)c1OC
0.0574

* * *

conditions: in 2-methoxyethanol, 303.15 K
MEASUREMENT_KIND: solubility (mole fraction)

Determine from records and report solubility (mole fraction) for COc1ccc(C(=O)O)c(OC)c1OC
0.213
